B1: LINE1-mini (parent)
chain: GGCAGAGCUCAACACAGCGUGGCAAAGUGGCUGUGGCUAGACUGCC

Variants of: B1
Test: self-cleavage, relative activity (ratio to wild type); higher = more cleavage; in vitro, sequencing; the parent is a self-cleaving ribozyme
experimental.endpoint: self-cleavage
// return just the number, without any unit appended

Prompt: Field request: self-cleavage | item: C8U C18G
Response: 0.23

Prompt: Can you check C3U C23U next?
Response: 0.38
